System: PPARg homodimer (NR concentration 180 nM)
Experiment: PBM binding z-score (relative to random genomic background probes); higher = stronger binding; sequences stand for … in GC…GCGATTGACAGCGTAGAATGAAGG
measure: PBM binding z-score
// print number alone

# count of solved cases: 3
>>> experimentalvalue("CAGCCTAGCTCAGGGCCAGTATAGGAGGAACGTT")
-1.23
>>> experimentalvalue("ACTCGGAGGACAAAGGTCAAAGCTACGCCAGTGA")
3.24
>>> experimentalvalue("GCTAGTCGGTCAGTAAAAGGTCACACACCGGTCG")
4.9

Query :: Enter reported PBM binding z-score observed with PPARg homodimer (NR concentration 180 nM) for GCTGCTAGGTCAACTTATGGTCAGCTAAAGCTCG
Result :: 2.49

Query :: Enter reported PBM binding z-score observed with PPARg homodimer (NR concentration 180 nM) for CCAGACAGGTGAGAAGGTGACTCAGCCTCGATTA
Result :: 0.821

Query :: Enter reported PBM binding z-score observed with PPARg homodimer (NR concentration 180 nM) for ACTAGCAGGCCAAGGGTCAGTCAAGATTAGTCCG
Result :: 1.54
